test: Antagonist activity P2X1 receptor in Apyrase pre-treated human platelets assessed as inhibition of TRAP6-induced platelet aggregation pre-incubated for 30 mins before TRAP6 stimulation by aggregometry
I'd be grateful if you could share measured IC50 for these entries.
Number in µM, nothing else.

Prompt: Consider the molecule O=C(Nc1cc(C(F)(F)F)cc(C(F)(F)F)c1)c1cc(Cl)ccc1O [TCMDC-125465] and give its measured IC50.
Response: 3.64

Prompt: Again, but for `O=C(Nc1cc(C(F)(F)F)cc(C(F)(F)F)c1)c1ccccc1`
Response: 5.57

Prompt: Again, but for `O=C(Nc1cc(C(F)(F)F)cc(C(F)(F)F)c1)c1ccc(Cl)cc1O`
Response: 4.8

----------
assay: Antagonist activity P2X1 receptor in human platelets assessed as inhibition of ADP-induced platelet aggregation pre-incubated for 30 mins before ADP stimulation by aggregometry
metric: IC50

Prompt: Consider the molecule `O=S(=O)(Nc1cc(C(F)(F)F)cc(C(F)(F)F)c1)c1cc(Cl)ccc1O` and give its measured IC50.
Response: > 20 µM

Prompt: Again, but for `O=C(Nc1cc(Cl)cc(Cl)c1)c1cc(Cl)ccc1O`
Response: > 20 µM

Prompt: Again, but for `O=C(Nc1cc(C(F)(F)F)cc(C(F)(F)F)c1)c1cc(Cl)ccc1O`
Response: 4.73 µM

Prompt: Again, but for `O=C(Nc1cc(C(F)(F)F)cc(C(F)(F)F)c1)c1ccc(Cl)cc1O`
Response: 5.47 µM

Prompt: Again, but for `O=C(Nc1cc(F)cc(F)c1)c1cc(Cl)ccc1O`
Response: > 20 µM

----------
assay: Antagonist activity P2X1 receptor in Apyrase pre-treated human platelets assessed as inhibition of TRAP6-induced platelet aggregation pre-incubated for 30 mins before TRAP6 stimulation by aggregometry
pIC50: −log10 of the molar value.
metric: pIC50

Prompt: Consider the compound `O=C(Nc1cc(Cl)cc(Cl)c1)c1cc(Cl)ccc1O` and give its measured pIC50.
Response: < 5.00

Prompt: Again, but for `O=S(=O)(Nc1cc(C(F)(F)F)cc(C(F)(F)F)c1)c1cc(Cl)ccc1O`
Response: < 5.00

Prompt: Again, but for `O=C(Nc1cc(F)cc(F)c1)c1cc(Cl)ccc1O`
Response: < 5.00
